Overview of reported Dmax across a group of molecules:
TARGET_OF_ASSAY: CDK6 (Homo sapiens, UniProt Q00534)
Construct: endogenous in cells
Sequence (Q00534 whole entry): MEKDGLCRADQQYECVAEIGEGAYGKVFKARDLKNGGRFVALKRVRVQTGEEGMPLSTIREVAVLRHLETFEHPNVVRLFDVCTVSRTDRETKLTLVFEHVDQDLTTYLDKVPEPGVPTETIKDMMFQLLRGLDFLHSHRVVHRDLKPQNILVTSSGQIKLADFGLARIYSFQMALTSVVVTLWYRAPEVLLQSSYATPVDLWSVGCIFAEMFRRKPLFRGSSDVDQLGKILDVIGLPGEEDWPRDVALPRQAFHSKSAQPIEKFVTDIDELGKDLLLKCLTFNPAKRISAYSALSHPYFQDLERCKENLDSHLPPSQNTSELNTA
EXPERIMENT_SUMMARY: CDK6 degradation (DC50, Dmax)
Assay type: cell-based
READOUT_KIND: Dmax

MOLECULE	TARGET_OF_ASSAY	READOUT_KIND	READOUT_VALUE
CC(=O)c1c(C)c2cnc(Nc3ccc(N4CCN(CCNc5ccc6c(c5)CN(C5CCC(=O)NC5=O)C6=O)CC4)cn3)nc2n(C2CCCC2)c1=O (stereo not drawn) [Compound 48]	CDK6 (Homo sapiens, UniProt Q00534)	Dmax	> 80%
CC(=O)c1c(C)c2cnc(Nc3ccc(N4CCN(CCC5CCN(C(=O)Nc6ccc7c(c6)CN(C6CCC(=O)NC6=O)C7=O)CC5)CC4)cn3)nc2n(C2CCCC2)c1=O (stereo not drawn) [Compound 46]	CDK6 (Homo sapiens, UniProt Q00534)	Dmax	> 60%
CC(=O)c1c(C)c2cnc(Nc3ccc(N4CCN(C(=O)N5CCC(CC6CCN(c7ccc8c(c7)CN(C7CCC(=O)NC7=O)C8=O)CC6)CC5)CC4)cn3)nc2n(C2CCCC2)c1=O (stereo not drawn) [Compound 14]	CDK6 (Homo sapiens, UniProt Q00534)	Dmax	> 60%

###

Entries and their DC50 values follow.
TARGET_OF_ASSAY: CDK6 (Homo sapiens)
Construct: endogenous in cells
EXPERIMENT_SUMMARY: CDK6 degradation (DC50, Dmax)
Assay type: cell-based
READOUT_KIND: DC50

COMPOUND	READOUT_VALUE
CC(=O)c1c(C)c2cnc(Nc3ccc(N4CCN(C(=O)N5CCC(C6CCN(c7ccc8c(c7)C(=O)N(C7CCC(=O)NC7=O)C8=O)CC6)CC5)CC4)cn3)nc2n(C2CCCC2)c1=O (stereo not drawn)	> 200 nM
CC(=O)c1c(C)c2cnc(Nc3ccc(N4CCN(C(=O)N5CCC(CC6CCN(c7ccc8c(c7)CN(C7CCC(=O)NC7=O)C8=O)CC6)CC5)CC4)cn3)nc2n(C2CCCC2)c1=O (stereo not drawn)	> 200 nM
Cc1nc2c(F)cc(-c3nc(Nc4ccc(CN5CCN(C(=O)C6CCN(c7ccc(C(=O)NC8CCC(=O)NC8=O)cc7)CC6)CC5)cn4)ncc3F)cc2n1C(C)C (stereo not drawn)	> 200 nM
CC(=O)c1c(C)c2cnc(Nc3ccc(N4CCN(CCCNc5cccc6c5C(=O)N(C5CCC(=O)NC5=O)C6=O)CC4)cn3)nc2n(C2CCCC2)c1=O (stereo not drawn)	50 to 200 nM
CC(=O)c1c(C)c2cnc(Nc3ccc(N4CCN(CC5CCN(C(=O)N6CCC(C7CCN(c8ccc9c(c8)C(=O)N(C8CCC(=O)NC8=O)C9=O)CC7)CC6)CC5)CC4)cn3)nc2n(C2CCCC2)c1=O (stereo not drawn)	> 200 nM
CC(=O)c1c(C)c2cnc(Nc3ccc(N4CCN(CCN(C)c5ccc6c(c5)CN(C5CCC(=O)NC5=O)C6=O)CC4)cn3)nc2n(C2CCCC2)c1=O (stereo not drawn)	50 to 200 nM
Cc1nc2c(F)cc(-c3nc(Nc4ccc(CN5CCN(C(=O)C6CN(c7ccc8c(c7)CN(C7CCC(=O)NC7=O)C8=O)C6)CC5)cn4)ncc3F)cc2n1C(C)C (stereo not drawn)	50 to 200 nM
CC(=O)c1c(C)c2cnc(Nc3ccc(N4CCN(C(=O)N5CCN(CC6CCN(c7ccc8c(c7)CN(C7CCC(=O)NC7=O)C8=O)CC6)CC5)CC4)cn3)nc2n(C2CCCC2)c1=O (stereo not drawn)	> 200 nM
CC(=O)c1c(C)c2cnc(Nc3ccc(N4CCN(C(=O)C5CCN(c6ccc7c(c6)CN(C6CCC(=O)NC6=O)C7=O)CC5)CC4)cn3)nc2n(C2CCCC2)c1=O (stereo not drawn)	50 to 200 nM
Cc1nc2c(F)cc(-c3nc(Nc4ccc(CC5CCN(C6CN(c7ccc8c(c7)C(=O)N(C7CCC(=O)NC7=O)C8=O)C6)CC5)cn4)ncc3F)cc2n1C(C)C (stereo not drawn)	50 to 200 nM
CC(=O)c1c(C)c2cnc(Nc3ccc(N4CCN(C(=O)N5CCC(N6CCN(c7ccc8c(c7)CN(C7CCC(=O)NC7=O)C8=O)CC6)CC5)CC4)cn3)nc2n(C2CCCC2)c1=O (stereo not drawn)	> 200 nM
CC(=O)c1c(C)c2cnc(Nc3ccc(N4CCN(C(=O)N5CCN(C6CCN(c7ccc8c(c7)C(=O)N(C7CCC(=O)NC7=O)C8=O)CC6)CC5)CC4)cn3)nc2n(C2CCCC2)c1=O (stereo not drawn)	> 200 nM
Cc1nc2c(F)cc(-c3nc(Nc4ccc(CC5CCN(CC6CCN(c7ccc8c(c7)CN(C7CCC(=O)NC7=O)C8=O)CC6)CC5)cn4)ncc3F)cc2n1C(C)C (stereo not drawn)	50 to 200 nM
Cc1nc2c(F)cc(-c3nc(Nc4ccc(CC5CCN(C6CCN(c7ccc(C(=O)NC8CCC(=O)NC8=O)cc7)CC6)CC5)cn4)ncc3F)cc2n1C(C)C (stereo not drawn)	50 to 200 nM
CC(=O)c1c(C)c2cnc(Nc3ccc(N4CCN(C5CN(c6cccc7c6C(=O)N(C6CCC(=O)NC6=O)C7=O)C5)CC4)cn3)nc2n(C2CCCC2)c1=O (stereo not drawn)	50 to 200 nM
CC(=O)c1c(C)c2cnc(Nc3ccc(N4CCN(CC5CCN(C(=O)Nc6ccc7c(c6)CN(C6CCC(=O)NC6=O)C7=O)CC5)CC4)cn3)nc2n(C2CCCC2)c1=O (stereo not drawn)	50 to 200 nM
CC(=O)c1c(C)c2cnc(Nc3ccc(N4CCN(C5CCN(C(=O)N6CCC(CN7CCN(c8ccc9c(c8)C(=O)N(C8CCC(=O)NC8=O)C9=O)CC7)CC6)CC5)CC4)cn3)nc2n(C2CCCC2)c1=O (stereo not drawn)	50 to 200 nM
CC(=O)c1c(C)c2cnc(Nc3ccc(N4CCN(CC5CN(c6cccc7c6C(=O)N(C6CCC(=O)NC6=O)C7=O)C5)CC4)cn3)nc2n(C2CCCC2)c1=O (stereo not drawn)	50 to 200 nM
CC(=O)c1c(C)c2cnc(Nc3ccc(N4CCN(C(=O)N5CCN(CC6CCN(c7ccc8c(c7)C(=O)N(C7CCC(=O)NC7=O)C8=O)CC6)CC5)CC4)cn3)nc2n(C2CCCC2)c1=O (stereo not drawn)	> 200 nM
Cc1nc2c(F)cc(-c3nc(Nc4ccc(CC5CCN(CC6CCN(c7ccc8c(c7)C(=O)N(C7CCC(=O)NC7=O)C8=O)CC6)CC5)cn4)ncc3F)cc2n1C(C)C (stereo not drawn)	< 50 nM
Cc1nc2c(F)cc(-c3nc(Nc4ccc(CN5CCN(CCNc6cccc7c6C(=O)N(C6CCC(=O)NC6=O)C7=O)CC5)cn4)ncc3F)cc2n1C(C)C (stereo not drawn)	< 50 nM

Values compiled from patent US20230295118A1.
